test-description: Inhibition constant against synaptosomal Mu opioid receptor
Where a SMILES comes first, the peptide text is derived from it. [ ]: non-standard residue; d: D form. The star is where a group is joined. Dmt = Cc1cc(O)cc(C)c1C[C@H](N)C(=O)O; Tic = O=C(O)[C@@H]1Cc2ccccc2CN1; Cbz = O=C(OCc1ccccc1)*
attribute-measured: pKi
One number for each entry, as −log10 of the molar value.

# example entries with known answers
| molecule | attribute-measured | endpoint-result |
| --- | --- | --- |
| Cc1cc(O)cc(C)c1C[C@H](N)C(=O)N[C@H](CCC/N=C(/N)N[N+](=O)[O-])C(=O)N[C@@H](Cc1ccccc1)C(=O)N[C@@H](CCCCNC(=O)OCc1ccccc1)C(=O)O | pKi | 8.84 |
| Cc1cc(O)cc(C)c1C[C@H](N)C(=O)N1Cc2ccccc2C[C@H]1C(=O)N[C@@H](Cc1ccccc1)C(=O)N[C@@H](CCCCNC(=O)OCc1ccccc1)C(N)=O (H-[Dmt][Tic]FK(Cbz)-NH2) | pKi | 8.94 |

Continue with the molecule presented below.
stdin: Return pKi for the following molecule: `Cc1cc(O)cc(C)c1C[C@H](N)C(=O)N[C@H](CCCN=C(N)N[N+](=O)[O-])C(=O)N[C@@H](Cc1ccccc1)C(=O)N[C@@H](CCCCNC(=O)OCc1ccccc1)C(N)=O`
stdout: 9.82

====

test-description: Inhibition constant against synaptosomal Delta Opioid Receptor
Where a SMILES comes first, the peptide text is derived from it. [ ]: non-standard residue; d: D form. The star is where a group is joined. Dmt = Cc1cc(O)cc(C)c1C[C@H](N)C(=O)O; Tic = O=C(O)[C@@H]1Cc2ccccc2CN1; Cbz = O=C(OCc1ccccc1)*
attribute-measured: pKi
One number for each entry, as −log10 of the molar value.

Example results:
| compound | endpoint-result |
| --- | --- |
| Cc1cc(O)cc(C)c1C[C@H](N)C(=O)N[C@H](CCCN=C(N)N[N+](=O)[O-])C(=O)N[C@@H](Cc1ccccc1)C(=O)N[C@@H](CCCCNC(=O)OCc1ccccc1)C(N)=O | 7.62 |
| Cc1cc(O)cc(C)c1C[C@H](N)C(=O)N[C@H](CCC/N=C(/N)N[N+](=O)[O-])C(=O)N[C@@H](Cc1ccccc1)C(=O)N[C@@H](CCCCNC(=O)OCc1ccccc1)C(=O)O | 7.32 |

stdin: Please look at this compound and report its pKi: Cc1cc(O)cc(C)c1C[C@H](N)C(=O)N1Cc2ccccc2C[C@H]1C(=O)N[C@@H](Cc1ccccc1)C(=O)N[C@@H](CCCCNC(=O)OCc1ccccc1)C(N)=O (H-[Dmt][Tic]FK(Cbz)-NH2)
stdout: 9.64
